Where do the numbers come from? From patent US20230295087A1.

Molecular target: human RORgT (Homo sapiens)
Sequence (P51449 267-516): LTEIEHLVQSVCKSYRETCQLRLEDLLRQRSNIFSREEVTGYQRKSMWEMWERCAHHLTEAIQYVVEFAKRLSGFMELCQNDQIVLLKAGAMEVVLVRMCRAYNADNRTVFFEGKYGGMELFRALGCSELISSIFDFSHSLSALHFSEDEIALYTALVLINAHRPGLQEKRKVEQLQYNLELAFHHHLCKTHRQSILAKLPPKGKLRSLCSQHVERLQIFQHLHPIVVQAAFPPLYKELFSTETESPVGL
Experiment: RORgT Gal4 Luciferase Reporter Gene Assay
Details: engineered Jurkat cells overexpressing RORgT (LBD or full length) fused with Gal4 Luc reporter; 18 hours at 37° C.; luminescence
pEC50: −log10 of the molar value.
readout-kind: pEC50

1) O=C(CC1CCS(=O)(=O)C1)N1CC[C@@]2(S(=O)(=O)c3ccc(F)cc3)c3ccc(OCc4c(F)cccc4C(F)(F)F)cc3CC[C@@H]12 (mixture of isomers) [Example 17]; 8.09

1: C[C@@H]1C[C@@H](C(=O)O)CC[C@@H]1C(=O)N1CC[C@@]2(S(=O)(=O)c3ccc(F)cc3)c3ccc(OCc4c(F)cccc4Cl)cc3CC[C@@H]12 [Example 22]
2: Cc1ccccc1Oc1ccc2c(c1)CC[C@H]1N(C(=O)[C@]3(C)CC[C@@H](C(=O)O)CC3)CC[C@@]21S(=O)(=O)c1ccc(F)cc1 [Example 50]
3: O=C(Nc1ccncc1)N1CC[C@@]2(S(=O)(=O)c3ccccc3)c3ccc(OCc4c(Cl)cccc4Cl)cc3CC[C@@H]12 [Example 87]
4: NC(=O)CN1CC[C@@]2(S(=O)(=O)c3ccccc3)c3ccc(OCc4c(Cl)cccc4Cl)cc3CC[C@@H]12 [Example 70]
5: NS(=O)(=O)CC(=O)N1CC[C@@]2(S(=O)(=O)c3ccc(F)cc3)c3ccc(OCc4c(F)cccc4C(F)(F)F)cc3CC[C@@H]12 [Example 185]
Arrange the 5 compounds from largest to smallest pEC50. Answer by listing the labels in the order asked for.
2, 1, 3, 5, 4
(2: 8.17, 1: 7.77, 3: 7.41, 5: 7.05, 4: 6.82)

====

biological target: human RORgT (Homo sapiens, UniProt P51449); experiment: RORgT Gal4 Luciferase Reporter Gene Assay; settings: engineered Jurkat cells overexpressing RORgT (LBD or full length) fused with Gal4 Luc reporter; 18 hours at 37° C.; luminescence
pEC50: −log10 of the molar value.
readout-kind: pEC50

Here's what some known entries look like.
1) CS(=O)(=O)CC(=O)N1CC[C@@]2(S(=O)(=O)c3ccccc3)c3ccc(OCc4c(Cl)cccc4Cl)cc3CC[C@@H]12; 7.77
2) O=C1CC[C@@H](C(=O)N2CC[C@@]3(S(=O)(=O)c4ccccc4)c4ccc(OCc5c(F)cccc5Cl)cc4CC[C@@H]23)N1; 8.06
3) O=C(O)[C@H]1CC[C@H](C(=O)N2CC[C@@]3(S(=O)(=O)c4ccc(F)cc4)c4ccc(Oc5c(F)cccc5C(F)(F)F)cc4CC[C@@H]23)CC1; 8.00
4) CS(=O)(=O)N1CCC(C(=O)N2CC[C@@]3(S(=O)(=O)c4ccccc4)c4ccc(OCc5c(Cl)cccc5Cl)cc4CC[C@@H]23)CC1; 8.00

A: O=C(C1CCS(=O)(=O)CC1)N1CC[C@@]2(S(=O)(=O)c3ccccc3)c3ccc(OCc4cc(Cl)ccc4Cl)cc3CC[C@@H]12
B: C[C@]1(C(=O)O)CC[C@H](C(=O)N2CC[C@@]3(S(=O)(=O)c4ccc(F)cc4)c4ccc(OCc5c(F)cccc5Cl)cc4CC[C@@H]23)CC1
C: O=C(C1CCS(=O)(=O)C1)N1CC[C@@]2(S(=O)(=O)c3ccc(F)cc3)c3ccc(OCc4c(F)cccc4Cl)cc3CC[C@@H]12 (stereo partly shown) [Example 18]
Please give the order of these compounds when sorted by pEC50, largest value leading. Kindly provide the labels arranged according to the requested ordering.
C, B, A
(C: 8.22, B: 8.00, A: 7.77)

====

Target: UniProtKB P51449
Sequence (P51449 267-516): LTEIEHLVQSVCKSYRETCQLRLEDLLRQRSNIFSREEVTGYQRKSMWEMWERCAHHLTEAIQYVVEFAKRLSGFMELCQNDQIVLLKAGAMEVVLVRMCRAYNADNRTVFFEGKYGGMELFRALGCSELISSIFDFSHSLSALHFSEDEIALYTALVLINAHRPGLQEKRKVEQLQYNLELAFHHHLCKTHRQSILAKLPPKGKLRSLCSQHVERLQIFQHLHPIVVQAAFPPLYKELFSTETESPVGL
Experiment: RORgT Gal4 Luciferase Reporter Gene Assay
Settings: engineered Jurkat cells overexpressing RORgT (LBD or full length) fused with Gal4 Luc reporter; 18 hours at 37° C.; luminescence
pEC50: −log10 of the molar value.
readout-kind: pEC50

1) NC(=O)N1CCC(C(=O)N2CC[C@@]3(S(=O)(=O)c4ccccc4)c4ccc(OCc5c(Cl)cccc5Cl)cc4CC[C@@H]23)CC1 [Example 62]; 7.82
2) CN1CCC(C(=O)N2CC[C@@]3(S(=O)(=O)c4ccc(F)cc4)c4ccc(OCc5ccc(F)cc5Cl)cc4CC[C@@H]23)CC1 [Example 206]; 6.67
3) CC(=O)N1CCC(C(=O)N2CC[C@@]3(S(=O)(=O)c4ccc(F)cc4)c4ccc(OCc5c(F)cc(F)cc5Cl)cc4CC[C@@H]23)CC1 [Example 214]; 8.28
4) O=C(C1CCS(=O)(=O)CC1)N1CC[C@@]2(S(=O)(=O)c3ccc(F)cc3)c3ccc(Sc4c(Cl)cccc4Cl)cc3CC[C@@H]12 [Example 118]; 8.89

A: N#CCCN1C(=O)CC[C@H]1C(=O)N1CC[C@@]2(S(=O)(=O)c3ccc(F)cc3)c3ccc(OCc4c(F)cccc4Cl)cc3CC[C@@H]12 [Example 160]
B: CN1CCC(C(=O)N2CC[C@@]3(S(=O)(=O)c4ccccc4)c4ccc(OCc5c(Cl)cccc5Cl)cc4CC[C@@H]23)CC1 [Example 61]
C: CC(=O)N1CCC(C(=O)N2CC[C@@]3(S(=O)(=O)c4ccc(F)cc4)c4ccc(OCc5c(F)cccc5C(F)(F)F)cc4CC[C@@H]23)CC1 [Example 182]
Order the records so the highest pEC50 appears first and the lowest last. Answer by listing the labels in the requested order.
A, C, B

====

molecular target: human RORgT (Homo sapiens, UniProt P51449); assay: RORgT Gal4 Luciferase Reporter Gene Assay; settings: engineered Jurkat cells overexpressing RORgT (LBD or full length) fused with Gal4 Luc reporter; 18 hours at 37° C.; luminescence
pEC50: −log10 of the molar value.
readout-kind: pEC50

I: N#CCCN1C(=O)CC[C@H]1C(=O)N1CC[C@@]2(S(=O)(=O)c3ccc(F)cc3)c3ccc(OCc4c(Cl)cccc4Cl)cc3CC[C@@H]12 [Example 156]
II: CC(=O)N1CCC(CN2CC[C@@]3(S(=O)(=O)c4ccc(F)cc4)c4ccc(OCc5c(F)cccc5C(F)(F)F)cc4CC[C@@H]23)CC1 [Example 51]
III: O=C1CCCN1CCC(=O)N1CC[C@@]2(S(=O)(=O)c3ccccc3)c3ccc(OCc4c(Cl)cccc4Cl)cc3CC[C@@H]12 [Example 76]
Hey, can you sort those molecules up there by pEC50, smallest first? Present the labels in the sequence the task asks for.
III, II, I
(III: 6.02, II: 7.49, I: 7.96)

====

Biological target: human RORgT (Homo sapiens, UniProt P51449)
Sequence (P51449 267-516): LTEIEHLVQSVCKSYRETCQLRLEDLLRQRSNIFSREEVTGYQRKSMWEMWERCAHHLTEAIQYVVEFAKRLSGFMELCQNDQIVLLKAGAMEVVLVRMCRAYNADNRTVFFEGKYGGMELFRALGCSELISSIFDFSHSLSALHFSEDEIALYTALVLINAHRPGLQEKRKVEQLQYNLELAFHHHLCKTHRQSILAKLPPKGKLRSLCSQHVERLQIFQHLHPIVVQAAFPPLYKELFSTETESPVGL
Assay: RORgT Gal4 Luciferase Reporter Gene Assay
Conditions: engineered Jurkat cells overexpressing RORgT (LBD or full length) fused with Gal4 Luc reporter; 18 hours at 37° C.; luminescence
pEC50: −log10 of the molar value.
readout-kind: pEC50

a: O=C([C@@H](O)C(F)(F)F)N1CC[C@@]2(S(=O)(=O)c3ccc(F)cc3)c3ccc(OCc4c(F)cccc4C(F)(F)F)cc3CC[C@@H]12
b: CN1CCC(C(=O)N2CC[C@@]3(S(=O)(=O)c4ccc(F)cc4)c4ccc(OCc5c(F)cc(F)cc5Cl)cc4CC[C@@H]23)CC1
c: O=C(C1CCS(=O)(=O)CC1)N1CC[C@@]2(S(=O)(=O)c3ccccc3)c3ccc(OCC4CCCCC4)cc3CC[C@@H]12
d: N#CCCN1C(=O)CC[C@H]1C(=O)N1CC[C@@]2(S(=O)(=O)c3ccc(F)cc3)c3ccc(OCc4c(F)cccc4C(F)(F)F)cc3CC[C@@H]12
Lab note: pEC50 ranking, ascending, for the listed compounds. Response field: labels, in requested order.
b, a, c, d
(b: 6.80, a: 7.38, c: 7.62, d: 8.37)

P: O=C(O)[C@H]1CC[C@](O)(C(=O)N2CC[C@@]3(S(=O)(=O)c4ccc(F)cc4)c4ccc(OCc5c(F)cccc5Cl)cc4CC[C@@H]23)CC1
Q: NS(=O)(=O)CC(=O)N1CC[C@@]2(S(=O)(=O)c3ccccc3)c3ccc(OCc4c(F)cccc4Cl)cc3CC[C@@H]12
Compare P and Q and name the one whose reported pEC50 is smaller. Lab note: record the label of whichever item you select.
Q
(Q: 6.92, P: 7.26)
